The measured values listed here are drawn from BindingDB's records for patent US20240148821.

target: GTPase KRas (G12D) and Son of Sevenless Homolog 1 (SOS) (Homo sapiens, UniProt P01116, G12D); assay: AlphaScreen Assay
Sequence (P01116 whole entry G12D): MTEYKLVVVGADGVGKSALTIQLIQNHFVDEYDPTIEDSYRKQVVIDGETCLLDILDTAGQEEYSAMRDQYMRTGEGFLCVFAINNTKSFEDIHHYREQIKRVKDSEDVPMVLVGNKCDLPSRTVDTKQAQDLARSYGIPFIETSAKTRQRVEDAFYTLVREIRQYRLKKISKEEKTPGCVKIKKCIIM
Sequence (Q07889 whole entry, further chain): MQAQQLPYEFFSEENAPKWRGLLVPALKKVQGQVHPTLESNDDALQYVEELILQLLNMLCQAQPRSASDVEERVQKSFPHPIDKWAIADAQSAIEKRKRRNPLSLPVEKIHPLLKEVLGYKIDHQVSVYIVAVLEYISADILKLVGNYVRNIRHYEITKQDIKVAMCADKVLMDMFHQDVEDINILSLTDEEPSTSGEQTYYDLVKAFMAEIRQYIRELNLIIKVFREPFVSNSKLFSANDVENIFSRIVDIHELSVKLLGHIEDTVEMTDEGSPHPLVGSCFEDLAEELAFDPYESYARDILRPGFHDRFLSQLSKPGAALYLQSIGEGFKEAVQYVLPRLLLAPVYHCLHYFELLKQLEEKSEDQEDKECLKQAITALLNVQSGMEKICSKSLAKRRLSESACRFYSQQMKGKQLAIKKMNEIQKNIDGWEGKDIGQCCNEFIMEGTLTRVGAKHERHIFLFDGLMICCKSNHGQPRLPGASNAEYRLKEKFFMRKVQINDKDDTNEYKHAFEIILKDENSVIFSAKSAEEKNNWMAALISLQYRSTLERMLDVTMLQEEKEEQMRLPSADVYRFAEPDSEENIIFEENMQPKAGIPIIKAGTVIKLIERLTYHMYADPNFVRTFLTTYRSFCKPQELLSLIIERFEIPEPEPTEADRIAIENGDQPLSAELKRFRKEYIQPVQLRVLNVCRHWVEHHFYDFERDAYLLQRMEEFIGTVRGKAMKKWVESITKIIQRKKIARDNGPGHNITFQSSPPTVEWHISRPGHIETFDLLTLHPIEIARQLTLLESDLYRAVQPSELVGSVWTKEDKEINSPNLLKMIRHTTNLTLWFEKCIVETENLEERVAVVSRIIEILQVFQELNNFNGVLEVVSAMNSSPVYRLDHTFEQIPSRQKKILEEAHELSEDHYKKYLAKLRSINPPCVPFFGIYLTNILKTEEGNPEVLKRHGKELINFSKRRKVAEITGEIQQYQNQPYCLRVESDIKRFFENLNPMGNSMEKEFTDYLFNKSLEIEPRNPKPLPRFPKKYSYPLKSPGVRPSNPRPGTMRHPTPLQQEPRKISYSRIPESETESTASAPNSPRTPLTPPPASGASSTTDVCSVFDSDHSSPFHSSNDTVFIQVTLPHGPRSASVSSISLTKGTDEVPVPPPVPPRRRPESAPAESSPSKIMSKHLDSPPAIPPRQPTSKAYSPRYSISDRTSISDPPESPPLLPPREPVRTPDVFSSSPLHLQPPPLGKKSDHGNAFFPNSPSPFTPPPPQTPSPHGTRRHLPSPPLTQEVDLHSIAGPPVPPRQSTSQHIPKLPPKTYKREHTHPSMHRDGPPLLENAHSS
Numbered stars: 1 amine (or outer) side, 2 acyl side, 3 side chain; on linkers, the order of the positions; unused ones are H or OH. Bridge positions count the residues as written; N and C are the ends. Square brackets hold non-standard residues; d marks the D form. Peptide text beside a SMILES is read from it. * marks the point of attachment. ξ: configuration not given here. hPhe(3-Cl-4-CF3) = N[C@@H](CCc1ccc(C(F)(F)F)c(Cl)c1)C(=O)O; hPhe(3-F,4-CF3) = N[C@@H](CCc1ccc(C(F)(F)F)c(F)c1)C(=O)O; X63 = O=C([C@H](CCc1ccc(C(F)F)c(F)c1)N[*:1])[*:2]; NMedβ3hAla = C[C@H](CC(=O)[*:2])N(C)[*:1]; NMeGly(cPent) = CN[C@H](C(=O)O)C1CCCC1; NMehCha = CN[C@@H](CCC1CCCCC1)C(=O)O; oXylylene = c1ccc(C[*:2])c(C[*:1])c1; NMeCha = CN[C@@H](CC1CCCCC1)C(=O)O; cisHyp = O=C(O)[C@@H]1C[C@H](O)CN1; ξPro(4,4-F2) = O=C(O)C1CC(F)(F)CN1; Hyp = O=C(O)[C@@H]1C[C@@H](O)CN1; NMeD = CN[C@@H](CC(=O)O)C(=O)O; NMeL = CN[C@@H](CC(C)C)C(=O)O; NMeA = CN[C@@H](C)C(=O)O; Piperidide = C1CCN(*)CC1; Ac5c = NC1(C(=O)O)CCCC1; Aze = O=C(O)[C@@H]1CCN1; Meb = Cc1ccc(C*)cc1; Sar = CNCC(=O)O
Assign IC50 to each entry below.
Express it in nM; write the number only.

Query: IC50; subject: CC[C@H](C)[C@@H]1NC(=O)[C@H](CC(C)C)N(C)C(=O)C[C@@H](C(=O)N2CCCCC2)N(C)C(=O)[C@H](C2CCCC2)N(C)C(=O)C2(CCCC2)NC(=O)[C@@H]2CCCN2C(=O)[C@H](CCc2ccc(C(F)F)c(F)c2)NC(=O)CN(C)C(=O)[C@H](CC2CCCCC2)N(C)C(=O)[C@@H]2CCN2C(=O)[C@H](C)N(C)C1=O [US20240148821, Compound 2085] ([NMeL]I[NMeA][Aze][NMeCha][Sar][X63]P[Ac5c][NMeGly(cPent)][NMeD]-Piperidide; lactam N-11)
2.9

Query: IC50; subject: CC[C@H](C)[C@@H]1NC(=O)[C@H](CC(C)C)N(C)C(=O)C[C@@H](C(=O)N2CCCCC2)N(C)C(=O)[C@H](CC(C)C)N(C)C(=O)C2(CCCC2)NC(=O)[C@@H]2C[C@@H](OCc3ccc(C)cc3)CN2C(=O)[C@H](CCc2ccc(C(F)(F)F)c(F)c2)NC(=O)CN(C)C(=O)[C@H](CC2CCCCC2)N(C)C(=O)CN(C)C(=O)CN(C)C1=O [US20240148821, Compound 2130] ([NMeL]I[Sar][Sar][NMeCha][Sar][hPhe(3-F,4-CF3)][Hyp](Meb)[Ac5c][NMeL][NMeD]-Piperidide; lactam N-11)
10

Query: IC50; subject: CC[C@H](C)[C@@H]1NC(=O)[C@H](CC(C)C)N(C)C(=O)C[C@@H](C)N(C)C(=O)[C@H](C2CCCC2)N(C)C(=O)C2(CCCC2)NC(=O)C2CC(F)(F)CN2C(=O)[C@H](CCc2ccc(C(F)(F)F)c(Cl)c2)NC(=O)CN(C)C(=O)[C@H](CCC2CCCCC2)N(C)C(=O)CN(C)C(=O)CN(C)C1=O (some centres undefined) [US20240148821, Compound 107] (cyclo([Ac5c][NMeGly(cPent)][NMedβ3hAla][NMeL]I[Sar][Sar][NMehCha][Sar][hPhe(3-Cl-4-CF3)][ξPro(4,4-F2)]))
4

Query: IC50; subject: CC[C@H](C)[C@@H]1NC(=O)[C@H](CC(C)C)N(C)C(=O)C[C@@H](C(=O)N2CCCCC2)N(C)C(=O)[C@H](CC(C)C)N(C)C(=O)C2(CCCC2)NC(=O)[C@@H]2C[C@H](OCc3ccccc3C)CN2C(=O)[C@H](CCc2ccc(C(F)(F)F)c(F)c2)NC(=O)CN(C)C(=O)[C@H](CC2CCCCC2)N(C)C(=O)CN(C)C(=O)CN(C)C1=O [US20240148821, Compound 2137] ([NMeL]I[Sar][Sar][NMeCha][Sar][hPhe(3-F,4-CF3)][cisHyp](oXylylene)[Ac5c][NMeL][NMeD]-Piperidide; lactam N-11)
69
